# Tested on: P. aeruginosa H188
# Type: cell-based, Pseudomonas aeruginosa
# study-conditions: H188
This listing pairs molecules with measured Minimum Inhibitory Concentration (activity).
Reply with just the number (in µg/mL).

Here are 4 molecules together with their reported answers.
>>> result("CC(C)C[C@@H]1NC(=O)[C@H](CCCCN)NC(=O)[C@H](C(C)C)NC(=O)[C@H](CCCCN)NC(=O)[C@@H]2CCCN2C(=O)[C@@H](Cc2ccc(O)cc2)NC(=O)[C@H](CCCCN)NC(=O)[C@H](CC(C)C)NC(=O)[C@H](CCCCN)NC(=O)[C@H](C(C)C)NC(=O)[C@@H](CCCCN)NC(=O)[C@@H]2CCCN2C(=O)[C@@H](Cc2ccc(O)cc2)NC(=O)[C@H](CCCCN)NC1=O")
9
>>> result("CC(C)C[C@@H]1NC(=O)[C@H](CCCCN)NC(=O)[C@H](C(C)C)NC(=O)[C@@H]2CCCN2C(=O)[C@@H](Cc2ccc(O)cc2)NC(=O)[C@H](CC(C)C)NC(=O)[C@H](CCCCN)NC(=O)[C@H](C(C)C)NC(=O)[C@H](CCCCN)NC(=O)[C@H](CC(C)C)NC(=O)[C@@H]2CCCN2C(=O)[C@H](Cc2ccc(O)cc2)NC(=O)[C@H](C(C)C)NC(=O)[C@H](CCCCN)NC1=O")
50
>>> result("CC(C)C[C@@H]1NC(=O)[C@H](CCCCN)NC(=O)[C@H](CC(C)C)NC(=O)[C@@H]2CCCN2C(=O)[C@@H](Cc2ccccc2)NC(=O)[C@H](CC(C)C)NC(=O)[C@@H](CCCCN)NC(=O)[C@H](CC(C)C)NC(=O)[C@H](CCCCN)NC(=O)[C@H](CC(C)C)NC(=O)[C@@H]2CCCN2C(=O)[C@@H](Cc2ccccc2)NC(=O)[C@H](CC(C)C)NC(=O)[C@H](CCCCN)NC1=O")
3.1
>>> result("CC(C)C[C@@H]1NC(=O)[C@H](CCCCN)NC(=O)[C@H](C(C)C)NC(=O)[C@H](CCCCN)NC(=O)[C@@H]2CCCN2C(=O)[C@@H](Cc2ccc(O)cc2)NC(=O)[C@H](CCCCN)NC(=O)[C@H](CC(C)C)NC(=O)[C@H](CCCCN)NC(=O)[C@H](C(C)C)NC(=O)[C@H](CCCCN)NC(=O)[C@@H]2CCCN2C(=O)[C@@H](Cc2ccc(O)cc2)NC(=O)[C@H](CCCCN)NC1=O")
6.2

Query CC(C)C[C@@H]1NC(=O)[C@H](CCCCN)NC(=O)[C@H](C(C)C)NC(=O)[C@@H]2CCCN2C(=O)[C@@H](Cc2ccc(O)cc2)NC(=O)[C@H](CC(C)C)NC(=O)[C@H](CCCCN)NC(=O)[C@H](C(C)C)NC(=O)[C@H](CCCCN)NC(=O)[C@H](CC(C)C)NC(=O)[C@H]2CCCN2C(=O)[C@@H](Cc2ccc(O)cc2)NC(=O)[C@H](C(C)C)NC(=O)[C@H](CCCCN)NC1=O yields Minimum Inhibitory Concentration (activity) of 100

Query CC(C)C[C@@H]1NC(=O)[C@H](CCCCN)NC(=O)[C@H](CC(C)C)NC(=O)[C@@H]2CCCN2C(=O)[C@@H](Cc2ccc(O)cc2)NC(=O)[C@H](CC(C)C)NC(=O)[C@@H](CCCCN)NC(=O)[C@H](CC(C)C)NC(=O)[C@H](CCCCN)NC(=O)[C@H](CC(C)C)NC(=O)[C@@H]2CCCN2C(=O)[C@@H](Cc2ccc(O)cc2)NC(=O)[C@H](CC(C)C)NC(=O)[C@H](CCCCN)NC1=O yields Minimum Inhibitory Concentration (activity) of 3.1

Query C[C@@H]1NC(=O)[C@H](CCCCN)NC(=O)[C@H](C)NC(=O)[C@@H]2CCCN2C(=O)[C@@H](Cc2ccc(O)cc2)NC(=O)[C@H](C)NC(=O)[C@@H](CCCCN)NC(=O)[C@H](C)NC(=O)[C@H](CCCCN)NC(=O)[C@H](C)NC(=O)[C@@H]2CCCN2C(=O)[C@@H](Cc2ccc(O)cc2)NC(=O)[C@H](C)NC(=O)[C@H](CCCCN)NC1=O yields Minimum Inhibitory Concentration (activity) of 75

Query CC(C)C[C@@H]1NC(=O)[C@H](CCCCN)NC(=O)[C@H](C(C)C)NC(=O)[C@@H]2CCCN2C(=O)[C@@H](Cc2ccc(O)cc2)NC(=O)[C@H](CC(C)C)NC(=O)[C@H](CCCCN)NC(=O)[C@H](C(C)C)NC(=O)[C@H](CCCCN)NC(=O)[C@H](CC(C)C)NC(=O)[C@@H]2CCCN2C(=O)[C@@H](Cc2ccc(O)cc2)NC(=O)[C@H](C(C)C)NC(=O)[C@@H](CCCCN)NC1=O yields Minimum Inhibitory Concentration (activity) of 3.1

Query CC(C)C[C@@H]1NC(=O)[C@H](C(C)C)NC(=O)[C@H](CC(C)C)NC(=O)[C@@H]2CCCN2C(=O)[C@@H](Cc2ccc(O)cc2)NC(=O)[C@H](C(C)C)NC(=O)[C@H](CC(C)C)NC(=O)[C@H](C(C)C)NC(=O)[C@H](CCCCN)NC(=O)[C@H](CCCCN)NC(=O)[C@@H]2CCCN2C(=O)[C@@H](Cc2ccc(O)cc2)NC(=O)[C@H](CCCCN)NC(=O)[C@H](CCCCN)NC1=O yields Minimum Inhibitory Concentration (activity) of 9

Query CC(C)C[C@@H]1NC(=O)[C@H](CCCCN)NC(=O)[C@H](C(C)C)NC(=O)[C@@H]2CCCN2C(=O)[C@@H](Cc2ccccc2)NC(=O)[C@H](CC(C)C)NC(=O)[C@H](CCCCN)NC(=O)[C@H](C(C)C)NC(=O)[C@H](CCCCN)NC(=O)[C@H](CC(C)C)NC(=O)[C@@H]2CCCN2C(=O)[C@@H](Cc2ccccc2)NC(=O)[C@H](C(C)C)NC(=O)[C@@H](CCCCN)NC1=O yields Minimum Inhibitory Concentration (activity) of 3.1
